# method-description: Acute toxicity test, single dose, ICR mice
# details: female, in vivo, im, Mouse (ICR), ♀, intramuscular, read-out: LD₅₀ Intramuscular

# structure-string, LD50
records = [
    ("CC(C)=CCC/C(C)=C/CC/C(C)=C/C=C/C(C)=C/C(=O)O", "> 2000 mg/kg"),
]

###

# method-description: Acute toxicity test, single dose, SD rats
# details: female, in vivo, Rat (SD), ♀, oral, medium 5% gum arabic, read-out: LD₅₀ Oral

# structure-string, unit-spec, LD50
records = [
    ("CC(C)=CCC/C(C)=C/CC/C(C)=C/C=C/C(C)=C/C(=O)O", "mg/kg", 2850),
]

###

# method-description: Acute toxicity test, single dose, ICR mice
# details: female, in vivo, sc, Mouse (ICR), ♀, subcutaneous, read-out: LD₅₀ Subcutaneous

# compound, LD50
data = [
    ("CC(C)=CCC/C(C)=C/CC/C(C)=C/C=C/C(C)=C/C(=O)O [compound (I)]", "> 4 mg/kg"),
]

###

# method-description: Acute toxicity test, single dose, SD rats
# details: female, in vivo, sc, Rat (SD), ♀, subcutaneous, read-out: LD₅₀ Subcutaneous
measured-metric: LD50 (mg/kg)

# compound, measured-metric, observed-measurement
rows = [
    ("CC(C)=CCC/C(C)=C/CC/C(C)=C/C=C/C(C)=C/C(=O)O [compound (I)]", "LD50", 2800),
]

###

# method-description: Acute toxicity test, single dose, ICR mice
# details: male, in vivo, im, Mouse (ICR), ♂, intramuscular, read-out: LD₅₀ Intramuscular

# structure-string, unit-spec, LD50
rows = [
    ("CC(C)=CCC/C(C)=C/CC/C(C)=C/C=C/C(C)=C/C(=O)O", "mg/kg", 2),
]

###

# method-description: Acute toxicity test, single dose, SD rats
# details: male, in vivo, Rat (SD), ♂, oral, medium 5% gum arabic, read-out: LD₅₀ Oral
measured-metric: LD50 (mg/kg)

# molecule, observed-measurement
measured = [
    ("CC(C)=CCC/C(C)=C/CC/C(C)=C/C=C/C(C)=C/C(=O)O [compound (I)]", 2400),
]

###

# method-description: Acute toxicity test, single dose, SD rats
# details: male, in vivo, sc, Rat (SD), ♂, subcutaneous, read-out: LD₅₀ Subcutaneous
# Procedure: By using 5 female and 5 male SD rats and ICR mice aged 7 to 8 weeks, the toxicities of the compound of the present invention were tested through oral, intramuscular, subcutaneous and intraperitoneal administrations each in a single dose (medium: 5% gum arabic).
measured-metric: LD50 (mg/kg)

# structure-string, measured-metric, observed-measurement
data = [
    ("CC(C)=CCC/C(C)=C/CC/C(C)=C/C=C/C(C)=C/C(=O)O", "LD50", 2500),
]

###

# method-description: Acute toxicity test, single dose, SD rats
# details: male, in vivo, ip, Rat (SD), ♂, intraperitoneal, read-out: LD₅₀ Intraperitoneal

# structure-string, unit-spec, LD50
rows = [
    ("CC(C)=CCC/C(C)=C/CC/C(C)=C/C=C/C(C)=C/C(=O)O", "mg/kg", 731),
]

###

# method-description: Acute toxicity test, single dose, SD rats
# details: female, in vivo, ip, Rat (SD), ♀, intraperitoneal, read-out: LD₅₀ Intraperitoneal
measured-metric: LD50 (mg/kg)

# structure-string, measured-metric, observed-measurement
records = [
    ("CC(C)=CCC/C(C)=C/CC/C(C)=C/C=C/C(C)=C/C(=O)O", "LD50", 680),
]
